Target: T1, RC-Fc (human)
T1 construct: Knob-in-hole heterodimer of the R chain and the C chain, human IgG1 Fc; expressed in 293 cells, purified on Protein A; also called RC-Fc fusion protein; reconstructed CGRP receptor extracellular region
T1 sequence (chain, as listed by the source limits assumed, chain 1 of 2): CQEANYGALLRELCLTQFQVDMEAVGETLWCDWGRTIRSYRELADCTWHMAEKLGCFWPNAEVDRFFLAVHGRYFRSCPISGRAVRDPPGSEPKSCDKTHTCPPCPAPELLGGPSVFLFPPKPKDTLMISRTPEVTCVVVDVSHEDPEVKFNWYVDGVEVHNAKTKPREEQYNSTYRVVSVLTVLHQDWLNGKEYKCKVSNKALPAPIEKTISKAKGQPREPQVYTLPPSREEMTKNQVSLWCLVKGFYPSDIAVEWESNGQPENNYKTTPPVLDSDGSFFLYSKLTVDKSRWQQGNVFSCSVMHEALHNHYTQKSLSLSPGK
T1 sequence (chain, as listed by the source limits assumed, chain 2 of 2): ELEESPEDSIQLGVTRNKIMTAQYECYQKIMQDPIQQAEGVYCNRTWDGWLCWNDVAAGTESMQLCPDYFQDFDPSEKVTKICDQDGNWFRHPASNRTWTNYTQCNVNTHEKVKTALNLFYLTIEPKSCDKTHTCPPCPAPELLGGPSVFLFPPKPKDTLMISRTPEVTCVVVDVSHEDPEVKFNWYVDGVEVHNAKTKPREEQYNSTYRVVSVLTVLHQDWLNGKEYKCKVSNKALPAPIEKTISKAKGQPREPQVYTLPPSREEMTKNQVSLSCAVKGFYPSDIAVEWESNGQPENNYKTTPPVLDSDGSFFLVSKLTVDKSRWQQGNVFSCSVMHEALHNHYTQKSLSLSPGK
Assay: ELISA, RC-Fc coated, VHH-His titrated, anti-His-HRP; average of Exp1-3
Observation type: EC50

INSERT INTO results (binder, readout_value) VALUES
  ('A10-269-238 (VHH, Llama VHH with C-terminal 6xHis, expressed in 293 cells; also called N220505106) VHH: QVQLVESGGGLVQPGGSLRLSCAASGFTFGNYDMSWVRQAPGKGPEWVSGIAPAGTITRYADSVKGRFTISRDNAKNTLYLQMNSLKPEDTAVYRCAKGASWGQGTQVTVSS', '0.082 nM'),
  ('A10-268-42 (VHH, Llama VHH with C-terminal 6xHis, expressed in 293 cells; also called B828603; 42wt) VHH: QVQLVESGGGLVQAGDSLRLSCAASGRTFSGYVMGWFRQAPGKEREFVAALRWSSSNTNYAASVKGRFTISRDYAKDTVYLQMNSLKPDDTAVYYCAAKRDRPYGSTWTPVAADYDTWGQGTQVTVSS', '0.065 nM'),
  ('A10-269-385 (VHH, Llama VHH with C-terminal 6xHis, expressed in 293 cells; also called N220505107) VHH: EVQLVESGGGLVQAGGSLRVSCQASEISFSFHAMGWYRQAPGKQRELVARITSIGRTTYADFVKGRFTISRGNAKNTVYLQMNSLKPEDTAVYYCNAEPGRVNYEYWGQGTQVTVSS', '0.062 nM'),
  ('A10-268-5 (VHH, Llama VHH with C-terminal 6xHis, expressed in 293 cells; also called B828601) VHH: QVQLVESGGGLVQAGGSLRLSCAVSGRTVTTITMGWFRQAPGKEREFVASISWDGLSTGYQDSVKGRFTISRDNAKNTVYLQMNSLKPEDTAVYYCAAGDSLWSWSKVPANYAYWGQGTQVTVSS', '0.136 nM');
